- Tested on: Human immunodeficiency virus 1
- Assay Text: Antiviral activity against HIV1 expressed in 293T cells assessed as protection against viral M33 envelope infection in human U87 cells coexpressing CD4, CCR5 receptors after 72 hrs by luciferase reporter gene pseudoviral assay
- Format: functional, organism-based
- Condition Details: Human immunodeficiency virus 1, HEK-293T
pIC50: −log10 of the molar value.
Measure Name: pIC50

Look over these answered cases.
C[C@@H]1CN(C(=O)c2ccccc2)CCN1C(=O)C(=O)c1ccc(N2CCOC2=O)cc1	4.92
C[C@@H]1CN(C(=O)c2ccccc2)CCN1C(=O)C(=O)c1ccc(-c2ncccc2F)cc1	5.70
COc1cc(C(=O)C(=O)N2CCN(C(=O)c3ccccc3)C[C@H]2C)ccc1-c1cc(C)no1	6.08
CC(=O)c1cc(-c2ccc(C(=O)C(=O)N3CCN(C(=O)c4ccccc4)CC3C)cc2)cs1 (racemic)	6.04
Cc1cc(-c2ccc(C(=O)C(=O)N3CCN(C(=O)c4ccccc4)C[C@H]3C)cc2)on1	6.48
Cc1cc(-c2ccc(C(=O)C(=O)N3CCN(C(=O)c4ccccc4)C[C@H]3C)cc2F)on1	6.89
C[C@@H]1CN(C(=O)c2ccccc2)CCN1C(=O)C(=O)c1ccc(-c2ccsc2)cc1	6.27
C[C@@H]1CN(C(=O)c2ccccc2)CCN1C(=O)C(=O)c1ccc(-c2cc[nH]n2)cc1O	5.66
CC1CN(C(=O)c2ccccc2)CCN1C(=O)C(=O)c1ccc(-c2ccn(C)n2)cc1 (racemic)	5.74
COc1cnc(-n2ccnn2)c2[nH]cc(S(=O)(=O)N3CCN(C(=O)c4ccccc4)C[C@H]3C)c12	8.15

(A) C[C@@H]1CN(C(=O)c2ccccc2)CCN1C(=O)C(=O)c1ccc(-c2cnco2)cc1
(B) CC1CN(C(=O)c2ccccc2)CCN1C(=O)C(=O)c1ccc(-c2cnn(C)c2)cc1 (racemic)
Query: Please indicate which has the smaller reported pIC50: A , or B . State your choice using its label.
Response: A

(1) CC(=O)c1ccc(-c2ccc(C(=O)C(=O)N3CCN(C(=O)c4ccccc4)C[C@H]3C)cc2)s1
(2) C[C@@H]1CN(C(=O)c2ccccc2)CCN1C(=O)C(=O)c1ccc(N2CCCC2)cc1
Query: Please indicate which has the smaller reported pIC50: 1 , or 2 . State your choice using its label.
Response: 2

(1) C[C@@H]1CN(C(=O)c2ccccc2)CCN1C(=O)C(=O)c1ccc(-c2cncs2)cc1
(2) COc1cc(C(=O)C(=O)N2CCN(C(=O)c3ccccc3)C[C@H]2C)ccc1-c1cnco1
Query: Please indicate which has the smaller reported pIC50: 1 , or 2 . State your choice using its label.
Response: 1

(P) C[C@@H]1CN(C(=O)c2ccccc2)CCN1C(=O)C(=O)c1ccc(-c2cccs2)cc1
(Q) C[C@@H]1CN(C(=O)c2ccccc2)CCN1C(=O)C(=O)c1ccc(-c2ccn[nH]2)cc1Cl
Query: Compare the recorded pIC50 of P and Q ; state which is larger. State your choice using its label.
Response: Q
(Q: 6.60, P: 6.36)
